# Tested on: Escherichia coli
# measurement description: Antimicrobial activity against Escherichia coli 33587-TC9 by agar dilution method
# Assay type: functional
value type: MIC (µg/mL)
Report the value in µg/mL with no unit label.

Below are worked cases with known answers.
CN(C)[C@@H]1C(O)=C(C(N)=O)C(=O)[C@@]2(O)C(O)=C3C(=O)c4c(O)cccc4[C@@](C)(O)[C@H]3C[C@@H]12; 32
CO[C@@]1(NC(=O)Cc2cccs2)C(=O)N2C(C(=O)O)=C(COC(N)=O)CS[C@@H]21; 0.125

// below: MIC requested for another compound
Kindly note the recorded MIC for C[C@H]1[C@H](NC(=O)/C(=N\OC(C)(C)C(=O)O)c2csc(N)n2)C(=O)N1S(=O)(=O)O , which is 256

---

# test system: PER-2 beta-lactamase (Citrobacter freundii)
# measurement description: Ratio of Kcat to Km of Citrobacter freundii PER2 beta lactamase relative to cephalothin
I'd appreciate it if you marked entries T when Activity is lower than 20% and F when it is not.

# example entries with known answers
CC1(C)S[C@@H]2[C@H](NC(=O)Cc3ccccc3)C(=O)N2[C@H]1C(=O)O; T
CC(=O)OCC1=C(C(=O)O)N2C(=O)[C@@H](NC(=O)Cc3cccs3)[C@H]2SC1; F
CC(C)(O/N=C(\C(=O)N[C@@H]1C(=O)N2C(C(=O)[O-])=C(C[n+]3ccccc3)CS[C@H]12)c1csc(N)n1)C(=O)O; F
CO/N=C(\C(=O)N[C@@H]1C(=O)N2C(C(=O)O)=C(COC(C)=O)CS[C@H]12)c1csc(N)n1; F
CC1(C)S[C@@H]2[C@H](NC(=O)[C@H](N)c3ccccc3)C(=O)N2[C@H]1C(=O)O; F
O=C(Cc1cccs1)N[C@@H]1C(=O)N2C(C(=O)O)=C(/C=C/c3ccc([N+](=O)[O-])cc3[N+](=O)[O-])CS[C@H]12; F

Input: Is the reported Activity for CO/N=C(\C(=O)N[C@@H]1C(=O)N2C(C(=O)O)=C(COC(N)=O)CS[C@H]12)c1ccco1 strictly below 20%?
Output: F

Input: In plain terms, does CCN1CCN(C(=O)N[C@@H](C(=O)N[C@@H]2C(=O)N3[C@@H]2SC(C)(C)[C@@H]3C(=O)O)c2ccccc2)C(=O)C1=O come in under 20% for Activity?
Output: F

Input: Hi there! Is Activity for CO/N=C(\C(=O)N[C@@H]1C(=O)N2C(C(=O)[O-])=C(C[N+]3(C)CCCC3)CS[C@H]12)c1csc(N)n1 below 20%, do you know?
Output: T

Input: Problem: For the molecule C[C@H]1[C@H](NC(=O)/C(=N\OC(C)(C)C(=O)O)c2csc(N)n2)C(=O)N1S(=O)(=O)O , is Activity under 20%?
Output: T

Input: In plain terms, does CCN1CCN(C(=O)N[C@@H](C(=O)N[C@@H]2C(=O)N3C(C(=O)O)=C(CSc4nnnn4C)CS[C@H]23)c2ccc(O)cc2)C(=O)C1=O come in under 20% for Activity?
Output: T

Input: Would you kindly verify if Activity of CO[C@@]1(NC(=O)Cc2cccs2)C(=O)N2C(C(=O)O)=C(COC(N)=O)CS[C@@H]21 is strictly less than 20%?
Output: T

---

Entries annotated with measured pKi
# test system: PER-2 beta-lactamase (Citrobacter freundii)
# Sequence (A2RP81 whole entry): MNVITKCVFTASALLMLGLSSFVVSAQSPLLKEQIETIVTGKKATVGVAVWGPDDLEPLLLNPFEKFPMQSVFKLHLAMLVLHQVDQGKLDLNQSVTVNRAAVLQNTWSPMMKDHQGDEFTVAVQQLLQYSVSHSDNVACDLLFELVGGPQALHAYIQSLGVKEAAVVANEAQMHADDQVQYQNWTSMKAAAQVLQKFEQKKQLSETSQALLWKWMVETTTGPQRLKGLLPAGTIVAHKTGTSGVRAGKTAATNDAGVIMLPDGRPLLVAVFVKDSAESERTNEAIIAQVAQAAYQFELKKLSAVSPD
# measurement description: Inhibition of Citrobacter freundii PER2 beta lactamase
Note: pKi values are expressed as the negative base-10 logarithm of concentration in M.

Observe how each entry below is paired with its result.
CCN1CCN(C(=O)N[C@@H](C(=O)N[C@@H]2C(=O)N3[C@@H]2SC(C)(C)[C@@H]3C(=O)O)c2ccccc2)C(=O)C1=O; 6.70
C[C@H]1[C@H](NC(=O)/C(=N\OC(C)(C)C(=O)O)c2csc(N)n2)C(=O)N1S(=O)(=O)O; 5.70
CO[C@@]1(NC(=O)Cc2cccs2)C(=O)N2C(C(=O)O)=C(COC(N)=O)CS[C@@H]21; 6.85

Here's the next entry for you.
Note to self: pKi recorded for C[C@@H](O)[C@H]1C(=O)N2C(C(=O)O)=C(SCCNC=N)C[C@H]12 [IMIPENEM ANHYDROUS] was 7.22

---

# Test system: Escherichia coli
# measurement description: Antimicrobial activity against Escherichia coli 33587-TC9 by agar dilution method
# Type: functional
# Lookup of reported MIC keyed by entry
Use µg/mL as the unit, but write only the number.

Answered examples (3):
CO/N=C(\C(=O)N[C@@H]1C(=O)N2C(C(=O)[O-])=C(C[N+]3(C)CCCC3)CS[C@H]12)c1csc(N)n1; 8
C[C@@H](O)[C@H]1C(=O)N2C(C(=O)O)=C(SCCNC=N)C[C@H]12 [IMIPENEM ANHYDROUS]; 0.125
CCN1CCN(C(=O)N[C@@H](C(=O)N[C@@H]2C(=O)N3[C@@H]2SC(C)(C)[C@@H]3C(=O)O)c2ccccc2)C(=O)C1=O; 256

Note: attention shifts to another entry.
Data point: CO/N=C(\C(=O)N[C@@H]1C(=O)N2C(C(=O)O)=C(COC(C)=O)CS[C@H]12)c1csc(N)n1 ; MIC = 64

---

# Tested on: Escherichia coli
# measurement description: Antimicrobial activity against Escherichia coli 33587-TC9 by agar dilution method
# Type: functional
# Lookup of reported MIC keyed by entry

CC1(C)S[C@@H]2[C@H](NC(=O)[C@H](N)c3ccccc3)C(=O)N2[C@H]1C(=O)O; > 512 µg/mL

molecule NC[C@H]1O[C@H](O[C@H]2[C@H](O)[C@@H](O[C@H]3O[C@H](CO)[C@@H](O)[C@H](N)[C@H]3O)[C@H](N)C[C@@H]2N)[C@H](O)[C@@H](O)[C@@H]1O , MIC observed: > 128 µg/mL

# MIC (molecule: O=C(N[C@H](CO)[C@H](O)c1ccc([N+](=O)[O-])cc1)C(Cl)Cl ) is > 32 µg/mL

// sample CCn1cc(C(=O)O)c(=O)c2ccc(C)nc21 , its MIC was > 128 µg/mL
